Data origin: PubChem BioAssay (NCATS)

System: CRL-7250
Assay: Cytotoxic Profiling of Annotated Libraries Using Quantitative High-Throughput Screening (AID 1296008); also: nearly all actives have a fitted effect of over 60% in size
Details: Five cell lines viability, CellTiter-Glo ATP luminescence, 48-72 h
Inconclusive results are not listed. Calls of active or inactive are those of the source. Calls follow the shape of the dose curve; as a rule, active = well fitted inhibition curve with a large enough effect; inconclusive = small, poorly fitted or top-dose-only effect; inactive = flat fitted curve, though single readings scatter.
Classes used: active, inactive

* CCOc1ccccc1C(N)=O | inactive
* CCC(Cc1c(I)cc(I)c(N)c1I)C(=O)O (stereo not given) | inactive
* OC(C#CCN1CCCC1)(c1ccccc1)c1ccccc1 | inactive
* CCCCC(CC)COC(=O)c1ccc(N(C)C)cc1 (stereo not given) | inactive
* COc1cc(N)c(Cl)cc1C(=O)NC1CCN(Cc2ccccc2)CC1 | inactive
* CNCCc1ccccn1 | inactive
* CC(C)n1c(/C=C/[C@@H](O)C[C@@H](O)CC(=O)O)c(-c2ccc(F)cc2)c2ccccc21 | active
* C=C1c2cccc(O)c2C(O)=C2C(=O)[C@]3(O)C(O)=C(C(N)=O)C(=O)[C@@H](N(C)C)[C@@H]3[C@@H](O)[C@H]12 | inactive
* C[C@]12CCC(=O)C=C1C=C[C@@H]1[C@@H]2CC[C@@]2(C)[C@H]1CC[C@@]21CCC(=O)O1 | active
* CCNC(=O)/C=C/c1cccc(Br)c1 | inactive
* CCCc1ncc(C[n+]2ccccc2C)c(N)n1 | inactive
* Cc1cccc(C)c1NC(=O)CN1CCCCCC1 | inactive
* Cc1c[nH]c2ccccc12 | inactive
* CCNC(=O)NCc1cccc(Cl)c1 | inactive
* C[C@@]12C(=O)OC(=O)[C@]1(C)C1CCC2O1 | active
* CN1CCC(OC(c2ccccc2)c2ccccc2)CC1 | inactive
* Cc1cc(CC(=O)O)c(C)n1-c1ccc(Cl)cc1 | inactive
* Cc1nc(-c2ccc(Cl)cc2)oc1COC(C)(C)C(=O)O | inactive
* CC(C)(C)NCC(O)COc1cccc2c1C[C@H](O)[C@H](O)C2 (stereo not given in full) | inactive
* CCN(CC)CCOc1ccc2c(c1)C(=O)c1cc(OCCN(CC)CC)ccc1-2 | active

---

System: CP250
Assay: qHTS profiling for inhibitors of Plasmodium falciparum proliferation (AID 504749); also: nearly all actives have a fitted effect of over 60% in size
Conditions: P. falciparum in erythrocytes, SYBR Green DNA, 72 h; series mostly up to 28.7 µM
Inconclusive results are not listed. The source made the active and inactive calls. The call rests on the fitted dose curve; in most records, active means well fitted inhibition curve with a large enough effect; inconclusive means small, poorly fitted or top-dose-only effect; inactive means flat fitted curve, though single readings scatter.
Classes used: active, inactive

• CC(=O)N[C@@H](CCC(=O)O)C(=O)O = inactive
• OC1C(O)C(O)C(O)C(O)C1O (stereo not given) = inactive
• C#C[C@]1(OC(C)=O)CC[C@H]2[C@@H]3CCC4=C/C(=N/O)CC[C@@H]4[C@H]3CC[C@@]21CC = inactive
• O=C(O)CCNC(=O)c1ccccc1 = inactive
• COc1cc(NS(=O)(=O)c2ccc(N)cc2)ncn1 = inactive
• NS(=O)(=O)c1ccc(Cl)c(S(N)(=O)=O)c1 = inactive
• CC1(COc2ccc(CC3SC(=O)NC3=O)cc2)CCCCC1 (stereo not given) = inactive
• CC(=O)Nc1ccc(OC(=O)c2ccccc2OC(C)=O)cc1 = inactive
• CCc1oc2ccccc2c1C(=O)c1cc(I)c(O)c(I)c1 = inactive
• Cc1nc(-c2ccc(Cl)cc2)oc1COC(C)(C)C(=O)O = inactive
• CCCCNc1ccc(C(=O)OCCOCCOCCOCCOCCOCCOCCOCCOCCOC)cc1 = inactive
• Cc1cc(NS(=O)(=O)c2ccc(N)cc2)nc(C)n1 = inactive
• CCCN(CCC)S(=O)(=O)c1ccc(C(=O)O)cc1 = inactive
• O=C(Oc1cccc2cccnc12)c1ccccc1 = inactive
• OCc1ccccn1 = inactive
• O=C(NC1CCN(CCc2c[nH]c3ccccc23)CC1)c1ccccc1 = inactive
• CC(=O)NO = inactive
• Cc1ccc(O)c([C@H](CCN(C(C)C)C(C)C)c2ccccc2)c1 = active
• FC1(F)C(F)(F)C(F)(F)C2(F)C(F)(F)C(F)(F)C(F)(F)C(F)(F)C2(F)C1(F)F (stereo not given) = inactive
• CC(C)(C)NC[C@H](O)COc1cccc2c1CCCC2=O = inactive
• Cc1cccc(C)c1NC(=O)CN1CCCCCC1 = inactive
• CCCCN=C(N)N=C(N)N = inactive
• CCCc1ncc(C[n+]2ccccc2C)c(N)n1 = inactive
• O=C(O)C1(C(=O)O)CCC1.[NH2-].[NH2-].[Pt+2] = inactive
• CC(C)CCCC(C)N (stereo not given) = inactive

---

Test: qHTS of pediatric cancer cell lines to identify multiple opportunities for drug repurposing: Primary screen for NB1643 cells (AID 1347099); also: nearly all actives have a fitted effect of over 50% in size
Conditions: NB1643 neuroblastoma viability, CellTiter-Glo luminescence, 48 h; series mostly up to 46 µM
Inconclusive results are not listed. The source made the active and inactive calls. Calls follow the shape of the dose curve; as a rule, active = well fitted cell-killing curve with a large enough effect; inconclusive = small, poorly fitted or top-dose-only effect; inactive = no such curve, though single readings can be large or run the other way.
Classes used: T for active, F for inactive

• CCc1cc(Cl)c(OC)c(C(=O)NC[C@@H]2CCCN2CC)c1O = F
• C[N+]1(CC2COC(c3ccccc3)(C3CCCCC3)O2)CCCCC1 (stereo not drawn) = F
• CCCCC(CC)CN1CN(CC(CC)CCCC)CC(C)(N)C1 (stereo not drawn) = F
• Cc1ccc(S(=O)(=O)NC(=O)NC2CCCC2)cc1 = F
• O=C(NCCc1c[nH]c2ccccc12)c1cccnc1 = F
• CCC(C(=O)OCCOCCN(CC)CC)c1ccccc1 (stereo not drawn) = F
• O=C(Nc1cccc(C2=NCCN2)c1)Nc1cccc(C2=NCCN2)c1 = F
• CCCCC(CC)COC(=O)/C=C/c1ccc(OC)cc1 (stereo not drawn) = F
• COc1ccc(CCN(C)CCCN2CCc3cc(OC)c(OC)cc3CC2=O)cc1OC = F
• COc1cc(O)c(C(=O)c2ccccc2)cc1S(=O)(=O)O = F
• OCCOCCN1CCN(C2=Nc3ccccc3Sc3ccccc32)CC1 = F
• CC(C)(C)CC(C)(C)c1ccc(O)c(-n2nc3ccccc3n2)c1 = F
• CC(=O)N[C@@H](CCC(=O)O)C(=O)O = F
• CN(CCCN1c2ccccc2CCc2ccccc21)CC(=O)c1ccc(Cl)cc1 = F
• Cc1ccc2c(Br)cc(Br)c(O)c2n1 = T
• NS(=O)(=O)c1ccc(Cl)c(S(N)(=O)=O)c1 = F
• C#C[C@]1(O)CC[C@H]2[C@@H]3CCc4cc(OC)ccc4[C@H]3CC[C@@]21C = F
• CC(=O)Nc1ccc(OC(=O)c2ccccc2OC(C)=O)cc1 = F

---

Test system: CP201
Assay: qHTS profiling for inhibitors of Plasmodium falciparum proliferation (AID 504749); also: nearly all actives have a fitted effect of over 60% in size
Settings: P. falciparum in erythrocytes, SYBR Green DNA, 72 h; series mostly up to 28.7 µM
Inconclusive results are not listed. The source made the active and inactive calls. Calls follow the shape of the dose curve; as a rule, active = well fitted inhibition curve with a large enough effect; inconclusive = small, poorly fitted or top-dose-only effect; inactive = flat fitted curve, though single readings scatter.
Classes used: true = active, false = inactive

• NC(=O)C1(N2CCCCC2)CCN(CCCC(=O)c2ccc(F)cc2)CC1 = false
• Nc1ccc(C(=O)NCC(=O)O)cc1 = false
• COc1cc(O)c(C(=O)c2ccccc2)cc1S(=O)(=O)O = false
• COP(=O)(OC)OC(c1ccc(Cl)cc1)P(=O)(OC)OC (stereo unspecified) = false
• CCCCCCCCNC(C)C(O)c1ccc(SC(C)C)cc1 (stereo unspecified) = true
• CCOC(=O)[C@H](CCc1ccccc1)N[C@@H](C)C(=O)N1[C@H](C(=O)O)C[C@H]2CCCC[C@@H]21 = false
• COc1cc(C(=S)N2CCOCC2)ccc1O = false
• CC(C)(C)NC[C@H](O)COc1nsnc1N1CCOCC1 = false
• CC[C@H](c1ccc(O)cc1)[C@@H](CC)c1ccc(O)cc1 = false
• CCOc1ccccc1OCCN[C@H](C)Cc1ccc(OC)c(S(N)(=O)=O)c1 = false
• CCOc1ccc(NC(C)=O)cc1 = false
• CN1CCN(C2=Nc3cc(F)ccc3Cc3ccccc32)CC1 = false
• CCCCCCCCCCCCSCCOCCO = false
• CO[C@]12C[C@@H](COC(=O)c3cncc(Br)c3)CN(C)[C@@H]1Cc1cn(C)c3cccc2c13 = false
• CC(=O)Nc1ncc([N+](=O)[O-])s1 = false
• C[N+]1(C)CCC(=C(c2ccccc2)c2ccccc2)CC1 = false
• O=C(O)CCC(=O)Nc1ccc(S(=O)(=O)Nc2nccs2)cc1 = false
• COc1cc(C)nc(-n2nc(C)cc2OC)n1 = false
• C#C[C@]1(O)CC[C@H]2[C@@H]3CCC4=CC(=O)CC[C@@H]4[C@H]3CC[C@@]21CC = false
• CC(C)=CCOc1ccc(/C=C/C(=O)c2ccc(OCC=C(C)C)cc2OCC(=O)O)cc1 = false
• CCNC(=O)NCc1cccc(Cl)c1 = false
• O=C(O)C(Cc1cc(I)c(O)c(I)c1)c1ccccc1 (stereo unspecified) = false
• CCCCNc1ccc(C(=O)OCCOCCOCCOCCOCCOCCOCCOCCOCCOC)cc1 = false
• Cc1c[nH]c2ccccc12 = false
• COc1ccc(C(Cl)=C(c2ccc(OC)cc2)c2ccc(OC)cc2)cc1 = false
• CCCCCCCCCCCCOCCOCCOCCOCCOCCOCCOCCOCCOCCO = false
• CC(C)Cn1cnc2c1c(=O)n(C)c(=O)n2C = false
• CCOC(=O)C(C#N)=C(c1ccccc1)c1ccccc1 = false
• CCN(CC)CCNc1ccc(CO)c2sc3ccccc3c(=O)c12 = true
• N/C(=N\N=C\c1ccc(Cl)cc1)N/N=C/c1ccc(Cl)cc1 = false
• CCOC(=O)c1c(N)sc2c1CCN(Cc1ccccc1)C2 = true
• O=C(O)Cc1csc(-c2ccc(Cl)cc2)n1 = false
• N=C(N)N1CCc2ccccc2C1 = false
• Cc1ccc(-c2ncc(Cl)cc2-c2ccc(S(C)(=O)=O)cc2)cn1 = false
• C#C[C@]1(OC(C)=O)CC[C@H]2[C@@H]3CCC4=C/C(=N/O)CC[C@@H]4[C@H]3CC[C@@]21CC = false
• Nc1ccc(S(=O)(=O)NCc2ccccc2)cc1 = false
• CC(C)NCC(O)c1ccc2ccccc2c1 (stereo unspecified) = false
• FC(F)(F)C(F)(F)C(F)(F)C(F)(F)C(F)(F)C(F)(F)C(F)(F)C(F)(F)Br = false
• CC(=O)NC(=O)c1ccccc1O = false
• NCc1ccccc1Sc1ccccc1CO = false
• CC1=C(C(=O)O)N2C(=O)[C@@H](NC(=O)[C@H](N)c3ccccc3)[C@H]2SC1 = false
